- TARGET UNDER TEST: T1, matrix metalloprotease 2 (MMP2) (UniProt P08253 110-660, limits assumed)
- T1 construct: also called matrix metalloproteinases 2
- T1 sequence (looked up): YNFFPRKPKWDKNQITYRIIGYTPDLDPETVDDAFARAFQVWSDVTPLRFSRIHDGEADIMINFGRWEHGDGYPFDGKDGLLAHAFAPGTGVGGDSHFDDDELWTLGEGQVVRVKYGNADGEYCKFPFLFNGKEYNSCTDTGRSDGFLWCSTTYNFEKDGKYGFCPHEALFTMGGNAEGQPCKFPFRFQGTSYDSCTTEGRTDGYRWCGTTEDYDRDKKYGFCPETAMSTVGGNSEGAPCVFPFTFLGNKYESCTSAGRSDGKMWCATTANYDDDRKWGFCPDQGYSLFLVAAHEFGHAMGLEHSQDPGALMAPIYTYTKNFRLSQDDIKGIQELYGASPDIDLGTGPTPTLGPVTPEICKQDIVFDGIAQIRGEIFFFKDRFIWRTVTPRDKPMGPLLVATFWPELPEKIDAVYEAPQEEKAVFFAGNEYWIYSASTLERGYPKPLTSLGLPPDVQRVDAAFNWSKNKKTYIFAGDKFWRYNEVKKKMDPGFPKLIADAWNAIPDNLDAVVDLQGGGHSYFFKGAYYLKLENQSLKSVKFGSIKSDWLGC
- RUN DESCRIPTION: MMP2 FRET-substrate inhibition assay; Ki = IC50/(1+[S]0/Km)
Starred links: 1 amine or outer side, 2 acyl side, 3 side chain; linkers in the order of their positions; H or OH if unused. Non-standard residues stand in square brackets, D forms with d. Asn(OH) = N-gamma-hydroxy-L-asparagine, O=C(C[C@H](N[*:1])C(=O)[*:2])NO[*:3]
Some binders, each annotated with its measured Ki.
Please respond with the number in nM and leave the unit unwritten.

cyclo(SYC[Asn(OH)]CLCRRGVCRCICTI) (disulfide (positions not given here); not fully specified (bridges); printed as cyclo[SYCN(OH)CLCRRGVCRCICTI]; also: oxidatively folded disulfides, pairing not given here, also called peptide 17; grafted peptide 17) [Asn(OH)-RTD1 17, cyclo[SYCN(OH)CLCRRGVCRCICTI]]	2.8

Challenge: Request the reported Ki associated with cyclo(SYCNCLCRRGVCRCICTI) (disulfide (positions not given here); also: oxidatively folded disulfides, pairing not given here, also called peptide 19) [Asn-RTD-1 19, cyclo[SYCNCLCRRGVCRCICTI]]
Response given: 36.5
